src = patent US20110293610A1

Target: T1, HIS-tagged B Lymphocyte Stimulator (human, UniProt Q9Y275 71-285)
T1 construct: Expressed in E. coli; also called HIS-B Lymphocyte Stimulator; histidine-tagged B Lymphocyte Stimulator; not shown: histidine tag from the pQE9 vector
T1 sequence (Q9Y275 71-285): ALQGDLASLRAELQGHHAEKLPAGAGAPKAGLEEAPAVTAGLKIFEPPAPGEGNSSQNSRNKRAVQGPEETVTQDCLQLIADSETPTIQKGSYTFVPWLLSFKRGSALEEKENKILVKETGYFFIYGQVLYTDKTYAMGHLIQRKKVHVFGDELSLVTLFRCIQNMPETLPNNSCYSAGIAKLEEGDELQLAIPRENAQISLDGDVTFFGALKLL
Test: BIAcore, periplasmic scFv over high density HIS-BLyS surface
Measured endpoint: binding result

INSERT INTO results (binder, reported_value) VALUES
  ('I079B12 (scFv) scFv: EVQLVQSRGGVVQPGRSLRLSCAASGLTFSSYGMHWVRQAPGKGLEWVAVISYDGRNKYYADSVKGRFTTSRDNSKNTLYLQMNSLRAEDTAVYYCAKWTSSGAFDIWGRGTLVTVSSGGGGSGGGGSGGGGSDIQMTQSPSTLSASIGDRVTITCRASEGIYHWLAWYQQKPGKAPKLLIYKASSLASGAPSRFSGSGSGTDFTLTISSLQPDDFATYYCHQYSNYPLTFGGGTKLEIKR', 'binds'),
  ('I083B12 (scFv) scFv: QVQLVQSGAEVKKPGASVKVSCKASEYTFYNHYMHWVRQAPGQGLEWMGFINPSGDAAWYAQKFQGRVTLTRDTSTRTVYMELSGLTSEDTAVYYCARESGAGGYYYDDYWGKGTLVTVSSGGGGSGGGGSGGGGSALSYVLTQPPSVSVAPGKTASIPCGGNNIGSKSVQWYLQKAGQAPILVVYDDSDRPSGIPERFSGSNSGNTATLTITRVEAGDEADYYCQVWDSSSDHWFFGGGTKLTVLG', 'binds');
